Data provenance: patent US11466024B2

- experiment.notes: Pharmacokinetic evaluation in mice after single IV and PO administration
- Format: in vivo
- Parameters: concentration or dose not given beside the values
- condition.description: female, mouse; Balb/c mice, plasma, IV
quantity.name: AUC(0-t) (µM·h)

{"columns": ["molecule", "measured.result"],
 "data": [
  ["CCS(=O)(=O)c1ccc(CNC(=O)c2cc3c(s2)C(C(C)C)N(C[C@H]2CC[C@H](C(F)(F)F)CC2)C3)nc1 (single isomer, unassigned) [Example 1]", 3.67]
]}

====

- experiment.notes: Pharmacokinetic evaluation in mice after single IV and PO administration
- Assay type: in vivo
- condition.description: female, mouse; Balb/c mice, plasma, PO; read-out: MRT0-inf
- Protocol: Balb/c mice (female, 15 to 30 g, 7- to 9-week old, Shanghai Lingchang) were used to test in vivo pharmacokinetics of compounds. The experimental method was as follows. The pharmacokinetic characteristics of the compounds were tested by standard protocols after the compounds were administered to rodents by intravenous injection and oral administration. […]

{"columns": ["compound", "result.unit", "MRT inf"],
 "data": [
  ["CCS(=O)(=O)c1ccc(CNC(=O)c2cc3c(s2)C(C(C)C)N(C[C@H]2CC[C@H](C(F)(F)F)CC2)C3)nc1 (single isomer, unassigned) [Example 1]", "h", 10.8]
]}
